src = ChEMBL document CHEMBL5346921

# Experimental protocol: Cytotoxicity against human NCM460 cells assessed as reduction in cell viability incubated for 48 hrs by MTT assay
# Type: toxicity, cell-based
Recorded endpoint: IC50 at 48 h (µM)
Numeric only. Scale: µM

Ask: Entry "NC(=O)c1ccccc1NCc1cccc(NC(=O)c2cccc(Br)c2)c1" : reported IC50 at 48 h = ?
Reply: 73.5

Ask: Entry "NC(=O)c1ccccc1OCc1cccc(NC(=O)Cc2ccc(Cl)cc2)c1" : reported IC50 at 48 h = ?
Reply: 286

Ask: Entry "NC(=O)c1ccccc1OCc1cccc(NC(=O)Cc2ccccc2Cl)c1" : reported IC50 at 48 h = ?
Reply: 98.7

Ask: Entry "NC(=O)c1ccccc1NCc1cccc(NC(=O)c2ccccc2Cl)c1" : reported IC50 at 48 h = ?
Reply: 105

Ask: Entry "NC(=O)c1ccccc1NCc1cccc(NC(=O)Cc2cccc(Cl)c2)c1" : reported IC50 at 48 h = ?
Reply: 77.2

Ask: Entry "NC(=O)c1ccccc1NCc1cccc(NC(=O)Nc2cccc(Br)c2)c1" : reported IC50 at 48 h = ?
Reply: 154

* * *

# Experimental protocol: Selectivity index, ratio of IC50 for cytotoxicity against human NCM460 cells to IC50 for antiproliferative activity against human HCT-116 cells
# Format: toxicity, cell-based
# Experimental context: NCM460 cells and HCT-116 cells, read-out: Ratio IC50
Recorded endpoint: selectivity ratio
// keep it numeric: no unit symbol after the value

Ask: Entry "NC(=O)c1ccccc1OCc1cccc(NC(=O)c2cccc(Cl)c2)c1" : reported selectivity ratio = ?
Reply: 10.6

Ask: Entry "NC(=O)c1ccccc1OCc1cccc(NC(=O)Cc2cccc(Cl)c2)c1" : reported selectivity ratio = ?
Reply: 9.79

Ask: Entry "NC(=O)c1ccccc1OCc1cccc(NC(=O)c2ccc(Br)cc2)c1" : reported selectivity ratio = ?
Reply: 1640

Ask: Entry "NC(=O)c1ccccc1NCc1cccc(NC(=O)Cc2ccccc2Cl)c1" : reported selectivity ratio = ?
Reply: 4.72

Ask: Entry "NC(=O)c1ccccc1NCc1cccc(NC(=O)Cc2ccccc2Br)c1" : reported selectivity ratio = ?
Reply: 3.35

Ask: Entry "NC(=O)c1ccccc1NCc1cccc(NC(=O)Cc2cccc(Br)c2)c1" : reported selectivity ratio = ?
Reply: 5.52

Ask: Entry "NC(=O)c1ccccc1OCc1cccc(NC(=O)Cc2ccccc2Br)c1" : reported selectivity ratio = ?
Reply: 22.6

Ask: Entry "NC(=O)c1ccccc1OCc1cccc(NC(=O)Cc2ccc(Br)cc2)c1" : reported selectivity ratio = ?
Reply: 19

Ask: Entry "NC(=O)c1ccccc1NCc1cccc(NC(=O)c2ccc(Br)cc2)c1" : reported selectivity ratio = ?
Reply: 1.59

Ask: Entry "NC(=O)c1ccccc1NCc1cccc(NC(=O)c2ccccc2Br)c1" : reported selectivity ratio = ?
Reply: 2.88

Ask: Entry "NC(=O)c1ccccc1NCc1cccc(NC(=O)Nc2cccc(Br)c2)c1" : reported selectivity ratio = ?
Reply: 17.9

* * *

# Test system: DLD-1
# Experimental protocol: Antiproliferative activity against human DLD-1 cells assessed as reduction in cell viability incubated for 48 hrs by MTT assay
# Assay type: functional, cell-based
# Experimental context: DLD-1, 48 h
Task for the reader: assign each of the following molecules its reported pIC50.
Entry type: numeric. Quantity: pIC50, the -log10 of concentration in molar units.

Ask: Entry "NC(=O)c1ccccc1OCc1cccc(NC(=O)c2ccc(Cl)cc2)c1" : reported pIC50 = ?
Reply: 4.89

Ask: Entry "NC(=O)c1ccccc1NCc1cccc(NC(=O)c2ccccc2Br)c1" : reported pIC50 = ?
Reply: 4.46

Ask: Entry "NC(=O)c1ccccc1OCc1cccc(NC(=O)c2cccc(Br)c2)c1" : reported pIC50 = ?
Reply: 4.19

Ask: Entry "NC(=O)c1ccccc1OCc1cccc(NC(=O)Cc2ccccc2Br)c1" : reported pIC50 = ?
Reply: 5.01

Ask: Entry "NC(=O)c1ccccc1NCc1cccc(NC(=O)Cc2ccc(Cl)cc2)c1" : reported pIC50 = ?
Reply: 5.10

Ask: Entry "NC(=O)c1ccccc1NCc1cccc(NC(=O)Cc2cccc(Br)c2)c1" : reported pIC50 = ?
Reply: 4.64

Ask: Entry "NC(=O)c1ccccc1NCc1cccc(NC(=O)c2ccccc2Cl)c1" : reported pIC50 = ?
Reply: 5.04

Ask: Entry "NC(=O)c1ccccc1NCc1cccc(NC(=O)c2ccc(Br)cc2)c1" : reported pIC50 = ?
Reply: 4.35

Ask: Entry "O=C(c1cc(Cc2n[nH]c(=O)c3ccccc23)ccc1F)N1CCN(C(=O)C2CC2)CC1" : reported pIC50 = ?
Reply: 4.86

Ask: Entry "NC(=O)c1ccccc1NCc1cccc(NC(=O)c2ccc(Cl)cc2)c1" : reported pIC50 = ?
Reply: 4.93

Ask: Entry "NC(=O)c1ccccc1OCc1cccc(NC(=O)c2ccccc2Br)c1" : reported pIC50 = ?
Reply: 4.33

Ask: Entry "NC(=O)c1ccccc1OCc1cccc(NC(=O)Cc2ccccc2Cl)c1" : reported pIC50 = ?
Reply: 4.73

Ask: Entry "NC(=O)c1ccccc1NCc1cccc(NC(=O)Nc2cccc(Br)c2)c1" : reported pIC50 = ?
Reply: 5.11

Ask: Entry "NC(=O)c1ccccc1NCc1cccc(NC(=O)c2cccc(Br)c2)c1" : reported pIC50 = ?
Reply: 5.00

Ask: Entry "NC(=O)c1ccccc1OCc1cccc(NC(=O)Cc2ccc(Cl)cc2)c1" : reported pIC50 = ?
Reply: 4.71

Ask: Entry "NC(=O)c1ccccc1OCc1cccc(NC(=O)c2ccc(Br)cc2)c1" : reported pIC50 = ?
Reply: 5.55
